- tested.on: PDGFRB (Homo sapiens, UniProt P09619)
- Construct: Kinases are expressed as either kinase domains or full length constructs; made in house
- Sequence (P09619 33-1106, species assumed): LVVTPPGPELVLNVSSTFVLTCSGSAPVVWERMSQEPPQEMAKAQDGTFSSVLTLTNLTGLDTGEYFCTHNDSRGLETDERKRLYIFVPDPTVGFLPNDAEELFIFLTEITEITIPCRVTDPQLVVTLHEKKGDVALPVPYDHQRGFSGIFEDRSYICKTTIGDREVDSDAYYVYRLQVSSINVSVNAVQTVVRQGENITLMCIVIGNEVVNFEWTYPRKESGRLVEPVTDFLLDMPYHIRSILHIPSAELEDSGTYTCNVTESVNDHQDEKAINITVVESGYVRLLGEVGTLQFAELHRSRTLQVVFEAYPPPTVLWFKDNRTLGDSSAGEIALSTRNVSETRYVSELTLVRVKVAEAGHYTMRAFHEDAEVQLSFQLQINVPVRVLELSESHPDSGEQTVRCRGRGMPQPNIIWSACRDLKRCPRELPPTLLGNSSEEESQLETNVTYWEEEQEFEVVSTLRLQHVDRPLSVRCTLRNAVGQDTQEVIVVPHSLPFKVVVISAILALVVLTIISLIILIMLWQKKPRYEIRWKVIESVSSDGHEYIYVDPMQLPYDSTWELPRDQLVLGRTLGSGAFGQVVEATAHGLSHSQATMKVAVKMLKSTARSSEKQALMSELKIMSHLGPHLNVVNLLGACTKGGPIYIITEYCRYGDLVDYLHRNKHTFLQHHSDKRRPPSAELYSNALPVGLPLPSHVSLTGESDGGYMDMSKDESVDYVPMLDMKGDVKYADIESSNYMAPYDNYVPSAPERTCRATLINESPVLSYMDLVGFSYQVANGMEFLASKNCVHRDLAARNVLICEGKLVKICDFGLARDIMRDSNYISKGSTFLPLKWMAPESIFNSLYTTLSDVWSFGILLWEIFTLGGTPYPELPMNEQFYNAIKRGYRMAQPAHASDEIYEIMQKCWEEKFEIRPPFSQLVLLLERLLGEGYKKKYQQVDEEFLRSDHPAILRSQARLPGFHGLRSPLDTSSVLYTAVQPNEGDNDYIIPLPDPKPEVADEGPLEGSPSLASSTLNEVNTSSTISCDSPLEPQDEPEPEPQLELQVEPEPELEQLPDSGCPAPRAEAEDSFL
- assay.remarks: Kinase inhibition assay (33P transfer), PDGFRB
- Type: biochemical
- assay.context: read-out: PDGFRB-1
// values below are reported IC50

| smiles.notation | reported.value |
| --- | --- |
| COc1cc(Nc2ncnc(Nc3ccc(NC(C)=O)c(C(F)(F)F)c3)n2)cc(OC)c1OC | 836 to 5020 nM |
| COc1ccc(Nc2nc3ccccc3n2-c2ncnc(Nc3cc(OC)c(OC)c(OC)c3)n2)cc1 | < 801 nM |
| COc1cc(Nc2ncnc(-n3ccc4cc(F)ccc43)n2)cc(OC)c1OC | < 1010 nM |

Field request: IC50 | item: OCc1ccc(Nc2ncnc(Nc3cc(-c4ccco4)n[nH]3)n2)cc1 1140 to 6870 nM

----------
- tested.on: AKT (Homo sapiens, UniProt Q9Y243)
- Construct: Kinases are expressed as either kinase domains or full length constructs; made in house
- Sequence (Q9Y243 whole entry, the tested form may be a part): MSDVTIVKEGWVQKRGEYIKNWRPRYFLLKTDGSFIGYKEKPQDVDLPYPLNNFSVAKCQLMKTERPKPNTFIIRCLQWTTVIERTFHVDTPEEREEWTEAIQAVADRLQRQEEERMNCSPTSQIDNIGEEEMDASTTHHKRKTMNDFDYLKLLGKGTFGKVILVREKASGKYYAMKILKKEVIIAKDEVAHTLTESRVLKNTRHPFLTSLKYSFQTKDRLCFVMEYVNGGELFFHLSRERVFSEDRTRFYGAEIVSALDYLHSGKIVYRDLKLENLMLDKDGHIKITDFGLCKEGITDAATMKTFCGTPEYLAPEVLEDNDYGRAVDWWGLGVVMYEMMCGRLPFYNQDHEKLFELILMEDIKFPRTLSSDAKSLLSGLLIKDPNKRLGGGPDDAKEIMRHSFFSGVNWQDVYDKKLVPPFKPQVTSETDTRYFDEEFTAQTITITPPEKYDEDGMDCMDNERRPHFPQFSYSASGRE
- assay.remarks: Kinase inhibition assay (33P transfer), AKT
- Type: biochemical
- assay.context: Table 2, kinase inhibition class; read-out: AKT3-1
attribute.measured: IC50

Example entries begin here.
| compound | IC50 |
| --- | --- |
| COc1cc(Nc2ncnc(-n3c(NCc4ccc(Cl)cc4C)nc4ccccc43)n2)cc(OC)c1OC [Compound 597] | 4.51 to 6.58 µM |
| COc1ccc(Nc2ncnc(Nc3ccc(OCc4ccccc4)cc3)n2)cc1O [Compound 171] | 0.963 to 5.78 µM |
| COc1ccc(Nc2ncnc(Nc3ccc(F)c(Cl)c3)n2)cc1OC [Compound 113] | > 12 µM |
| COc1cc(Nc2ncnc(-c3cccnc3NC(C)C)n2)cc(OC)c1OC [Compound 1089] | > 11.4 µM |
| COc1cc(Nc2ncnc(N(CC(=O)O)c3ccc4c(c3)OCO4)n2)cc(OC)c1OC [Compound 319] | > 9.88 µM |

Field request: IC50 | item: CC(C)(C)OC(=O)Nc1ccc(Nc2ncnc(-c3ccccc3)n2)cc1 [Compound 19] > 12.4 µM

Next: COc1cc(Nc2ncnc(-n3c(NCC(N)=O)nc4ccccc43)n2)cc(OC)c1OC [Compound 389] > 9.99 µM

Next: COc1cc(Nc2ncnc(-n3c(NC(C)(C)c4ccccc4)nc4ccccc43)n2)cc(OC)c1OC [Compound 569] > 8.8 µM

----------
- tested.on: Zap-70 (Homo sapiens, UniProt P43403)
- Construct: Kinases are expressed as either kinase domains or full length constructs; made in house
- Sequence (P43403 whole entry, species assumed, the tested form may be a part): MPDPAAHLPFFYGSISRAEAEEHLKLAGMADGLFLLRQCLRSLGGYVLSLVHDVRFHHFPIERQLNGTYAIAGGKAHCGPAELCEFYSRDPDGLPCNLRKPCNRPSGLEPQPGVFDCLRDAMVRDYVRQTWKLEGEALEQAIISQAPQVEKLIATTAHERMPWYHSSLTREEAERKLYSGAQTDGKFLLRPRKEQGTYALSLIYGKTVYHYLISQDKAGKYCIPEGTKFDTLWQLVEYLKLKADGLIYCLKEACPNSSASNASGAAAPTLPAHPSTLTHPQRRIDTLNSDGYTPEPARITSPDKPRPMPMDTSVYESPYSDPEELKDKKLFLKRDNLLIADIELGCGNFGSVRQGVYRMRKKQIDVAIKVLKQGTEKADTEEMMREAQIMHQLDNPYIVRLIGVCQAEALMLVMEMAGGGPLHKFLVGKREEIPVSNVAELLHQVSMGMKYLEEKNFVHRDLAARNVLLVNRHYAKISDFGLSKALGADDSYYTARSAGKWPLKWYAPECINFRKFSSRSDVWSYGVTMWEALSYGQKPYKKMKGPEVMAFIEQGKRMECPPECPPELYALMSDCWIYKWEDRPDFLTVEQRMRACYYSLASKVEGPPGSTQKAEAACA
- assay.remarks: Kinase inhibition assay (33P transfer), Zap-70
- Type: biochemical
- assay.context: read-out: Zap-1
// values below are reported IC50

| compound | tested.on | IC50 |
| --- | --- | --- |
| O=c1[nH]c2ccccc2n1-c1ncnc(Nc2cc(Cl)cc(Cl)c2)n1 | Zap-70 (Homo sapiens, UniProt P43403) | 9.38 to 12.1 µM |

Field request: IC50 | item: COc1cc(Nc2ncnc(N(C)c3cccc(Cl)c3)n2)cc(OC)c1 > 12.1 µM

Next: COc1ccc(N(C)c2ncnc(-n3c(N)nc4ccccc43)n2)cc1 > 13 µM

Next: COc1cc(Nc2ncnc(Nc3cc(-c4cccc(Cl)c4)n[nH]3)n2)cc(OC)c1OC > 9.91 µM

Next: C=CCNc1ncccc1-c1ncnc(Nc2cc(OC)c(OC)c(OC)c2)n1 > 11.4 µM

Next: COc1ccc([C@@H](C)Nc2nc3ccccc3n2-c2ncnc(Nc3cc(OC)c(OC)c(OC)c3)n2)cc1 > 8.53 µM

Next: COc1ccc(Nc2ncccc2-c2ncnc(Nc3cc(OC)c(OC)c(OC)c3)n2)c(C)c1 > 9.48 µM

Next: CC(C)(C)c1cc(Nc2ncnc(Nc3cccc(Cl)c3)n2)[nH]n1 > 13.1 µM

Next: Brc1cccc(Nc2ncnc(Nc3cccc(Br)c3)n2)c1 0.95 to 5.7 µM

Next: COc1cc(Nc2ncnc(-n3c(NCc4ccccc4Cl)nc4ccccc43)n2)cc(OC)c1OC 4.63 to 6.76 µM

Next: CN(c1cccc(Cl)c1)c1ncnc(Nc2ccncc2)n1 > 14.4 µM

Next: COc1ccc(Nc2nc3ccccc3n2-c2ncnc(Nc3cc(OC)c(OC)c(OC)c3)n2)c(C)c1 4.67 to 6.82 µM

Next: COc1cc(Nc2ncnc(Nc3cccc4ccccc34)n2)cc(OCCN2CCOCC2)c1OC > 8.95 µM

Next: COc1cc(Nc2ncnc(N(C)c3cccc4ccccc34)n2)cc(OC)c1OC > 10.8 µM

Next: O=c1[nH]c2ccccc2n1-c1ncnc(Nc2cccc(S(=O)(=O)CCO)c2)n1 > 10.9 µM

Next: CN(c1cccc(Cl)c1)c1ncnc(NCCN2CCCCC2)n1 > 13 µM

Next: O=c1[nH]c2ccccc2n1-c1ncnc(Nc2cccc3cccnc23)n1 6.75 to 9.85 µM

Next: COC(=O)c1ccc(-c2cc(Nc3ncnc(Nc4cc(OC)c(OC)c(OC)c4)n3)[nH]n2)cc1 > 9.42 µM
